# target.under.test: T1, CD45RO ECD (human)
# T1 chain: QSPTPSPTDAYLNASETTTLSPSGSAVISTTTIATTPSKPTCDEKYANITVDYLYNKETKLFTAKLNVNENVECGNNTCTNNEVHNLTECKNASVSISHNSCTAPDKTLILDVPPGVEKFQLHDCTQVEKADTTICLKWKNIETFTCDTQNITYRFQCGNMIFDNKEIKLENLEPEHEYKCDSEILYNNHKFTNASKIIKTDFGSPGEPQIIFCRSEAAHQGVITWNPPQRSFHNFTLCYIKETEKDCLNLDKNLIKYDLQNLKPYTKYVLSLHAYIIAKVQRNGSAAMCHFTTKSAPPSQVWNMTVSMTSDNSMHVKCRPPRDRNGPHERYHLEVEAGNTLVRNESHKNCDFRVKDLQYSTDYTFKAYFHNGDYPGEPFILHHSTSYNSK
# test.method.notes: SPR
Reported pKd values follow for various binders
Please treat pKd as minus the base-10 logarithm of the molar concentration.

Please review the following examples before continuing.
binder: HAdV-D58 E3/49K (Fc fusion) SQAGFHTINATWWANITLVGPSDTPVTWYDKQGMQFCDGNTVKNPQIRHECNEQNLTLIHVNKTHERTYMGYNRQSTHKEDYKVIVIPPPPATVKPQSGPEYVYVNMGENKTLVGPPGIPVTWYDGEGNKFCDGEKVEHAEFNHTCDVQNLTLLFINLTHDGAYLGYNHQGTKRTWYEVVVTDGFPKSGEMKIEDQSRQTEQKQTGQKQNEHKQGGQKQEGQKETSQKKANDKQKATHRRPSKLKPHTPEAKLITVSSGSNLTLLGPDGKVTWYDDDLKRPCEPGYKLNCKCDNQNLTLINVTKLYEGVYYGTNDGGNGKRYRVKVNTTNSQNVKIQPYTRPTTPDQKHRFELQIDYNQDNDKIPSTT
quantitative.result: 9.42
//
binder: HAdV-D28 E3/49K (Fc fusion) QAVHVNLEICYGCNGTLIGPPKTPVEWYDGRGHKLCAGTDTFRKELNHTCNLQNMTLTFVNLTHKGTYYGFGSDNKNSRVYQVTIKPPVLTTRRPLLKPEDVVITKGNNKTLVGPPDTPVDWYDGSGHKLCKGKEVHYPELNHTCNEQNLTLIFVNATFKGTYYGFRKDGTDKKEYRVTIDDLYAKQLKQEKDEKPRSGHDKQKSKSQERQNPKTEERHEHRDVVKEVSFRTGTNQTLVGPPGSNVDWLKIGNGGTFSELCKGDDKHYSCNSQNLTIINVTRSDEGSYYGSNDDSAHYRVSVYDPVQKKRVMKIQPHTTKTTTEGTTKSSTNESDENFALQQGNNGENNQSDETNIPS
quantitative.result: 9.48
//
binder: HAdV-D30 E3/49K (Fc fusion) ADPILVSVDWGKNLKLEGPKETPVEWWGGKNIQQLCVGNQTKHKELRHTCNMQNITLLSVNTSFNGDYFGFKNDNSGMKHYKVTVIPPKPTTRKPLPPPHYVNATMGQNLTLVGPANIPVTWLSEFGTLCEGKKILHEELNHTCNEQNLTLLFVNMTHNGPYFGFGKDNVDREQYEVSIISLFKVGAGQKKIDKGQRAEEKTKFNSGDLGRKQSRPKKKDIVDEVQVKSGNNQTLIGPPGKNVDWIKLSSGNDAVVTLCKGDTWIKHTCNGPNVTLINVTKPYEGSYYGSSDDGSSHYKVTVYDLYKSNKSKSKVKPYTTKGTTVNATNANGLKNALQQDGESENDQESKIPSAT
quantitative.result: 9.72

From here, focus on the item given below.
Noted for HAdV-D37 E3/49K (Fc fusion) GFHTINATWWANITLVGPPDTPVTWYDTQGLWFCNGSRVKNPQIRHTCNDQNLTLIHVNKTYERTYMGYNRQGTKKEDYKVVVIPPPPATVKPQPEPEYVFVYMGENKTLEGPPGTPVTWFNQDGKKFCEGEKVLHPEFNHTCDKQNLILLFVNFTHDGAYLGYNHQGTQRTHYEVTVLDLFPDSGQMKIENHSEETEQKNDEHHNWQKQGGQKQGGQKTNQTKVNDRRKTAQKRPSKLKPATIEAMLVTVTAGSNLTLVGPKAEGKVTWFDGDLKRPCEPNYRLRHECNNQNLTLINVTKDYEGTYYGTNDKDEGKRYRVKVNTTNSQSVKIQPYTRQTTPDQEHKFELQFETNGNYDSKIPSTT : its pKd reads 9.96
